- assayProtocol: A549 cell cytotoxicity, dose response, cytotoxicity control, ATP luminescence, cherry-pick, set 2 (AID 1053124)
- details: A549 viability, ATP luminescence (CellTiter-Glo), 72 h; series mostly up to 26 µM
Measured potencies and affinities stand elsewhere. Calls of active or inactive are those of the source.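 Rule for the calls: active = cell killing whose fitted half-effect concentration is at most twice the top valid dose tested; inconclusive = flat curve with 30 to 70% killing, or a poor fit; inactive = effect in the rising direction, plus the rest.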
measuredQuantity: outcome

compound	dataValue
COc1ccccc1NS(=O)(=O)c1cc(NC(=O)CCNC(C)=O)ccc1C	inactive
O=C(CCc1c[nH]c2ccccc12)OCC(=O)c1ccccc1	inactive
CCn1c(=N)c(S(=O)(=O)c2ccccc2)cc2c(=O)n3ccccc3nc21	inactive
Nc1cccc2c1C(=O)N(c1ccccc1)C2=O	inactive
N=c1c(C(=O)NCC2CCCO2)cc2c(=O)n3ccccc3nc2n1Cc1ccc(Cl)cc1 (stereo not drawn)	inactive
O=C(Cn1ccc([N+](=O)[O-])n1)N1CCCCCC1	inactive
CCOc1ccc(C(=O)c2cc3ccc(O)cc3oc2=O)cc1	inactive
Cc1cc(-c2nc3cccnc3s2)ccc1NS(=O)(=O)c1cccs1	inactive
COC(=O)C1=CN(CC2CCCO2)C=C(C(=O)OC)C1c1cccc(O)c1 (stereo not drawn)	inactive
CC(=O)c1sc(N/N=C\c2ccc(N(C)C)cc2)nc1C	inactive

Please indicate outcome recorded for O=C(NCc1nnnn1-c1ccc(Cl)cc1)C1CC(=O)N(c2ccc(F)cc2)C1 (stereo not drawn)
inactive

Please indicate outcome recorded for `COCc1cc(C)nc(SCC(=O)Oc2ccc(Cl)cc2)c1C#N`
inactive
